Exercise: state measured EC50 for each of the binders provided.
targetEntity: T1, human MSLN-R3 on HEK293T-hMSLN-R3 recombinant cells (human, UniProt Q13421 487-606)
T1 construct: the C-terminal limit is uncertain; also called human MSLN-R3 membrane protein
T1 sequence (Q13421 495-614): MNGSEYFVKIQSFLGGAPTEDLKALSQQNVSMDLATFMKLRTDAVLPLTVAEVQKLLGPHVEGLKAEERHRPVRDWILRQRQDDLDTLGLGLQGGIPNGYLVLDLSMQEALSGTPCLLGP
assayProtocol: FACS, HEK293T-hMSLN-R3 cells
Give just the number in nM; leave the unit off.

F7.44.20-H8 (scFv, not shown: small tags and cut ends, also called S009-F7.44.20 humanized antibody VH1a + VL4) scFv: EVQLVQSGAEVKKPGASVKVSCKASGYTFTDYNMDWVRQAPGQGLEWMGDINPSTGGTIYNQKFQGRVTMTEDKSTSTVYMELSSLRSEDTAVYYCARRRIGTGYFDVWGQGTTVTVSSGGGGSGGGGSGGGGSEIVLTQSPATLSLSPGERATLSCSASSSVISSYLSWYQQKPGSSPRLLIYRTSNLASGIPARFSGSGSGTDYTLTISSLEPEDFAVYYCHQWSSFPYTFGGGTKVEIK has a reported EC50 of 1.95

F7.44.20-H13 (scFv, not shown: small tags and cut ends, also called S009-F7.44.20 humanized antibody VH2a + VL1) scFv: EVQLVQSGAEVKKPGASVKVSCKASGYTFTDYNMDWVRQAPGQGLEWMGDINPSTGGTIYNQKFSGRVTMTEDKSASTVYMELSSLRSEDTAVYYCARRRIGTGYFDVWGQGTTVTVSSGGGGSGGGGSGGGGSEIVLTQSPDFQSVTPKEKVTITCSASSSVISSYLSWYQQKPDQSPKLLIYRTSNLASGVPSRFSGSGSGTDFTLTINSLEAEDAATYYCHQWSSFPYTFGGGTKVEIK has a reported EC50 of 0.63
